- Protocol Details: OD615 S. cerevisiae growth inhibition, permissive medium, pilot counter-assay, permissive growth control for S. cerevisiae lifespan shortening project (AID 705)
- Run Conditions: OD615, 24 h, at 10 µM, hits give high values
Attribute Measured: growth inhibition (%)
Value expressed in %; do not type the unit.

Would you kindly share the measured growth inhibition for COC(=O)C1=C(C)N(C)C(C)=C(C(=O)OC)C1c1cccc(Br)c1 ?
-16.7

Find the recorded growth inhibition belonging to COc1cc(CN2CCN(c3cccc(C)c3C)CC2)cc(Br)c1O and report it.
-4.04

So what does the record say about growth inhibition for COCCCNC(=O)Cn1ncc2ccsc2c1=O ?
-4.86

What does the record list as growth inhibition for CC(C)c1ccc(N(CC(=O)O)S(=O)(=O)c2cccnc2)cc1 ?
-2

Fill in: growth inhibition of COc1ccc(-c2cn3c(C)c(C(=O)NC(C)(C)C)sc3n2)cc1 is ___
-8.09

I have this compound here, O=C(O)c1cc(Cl)c(Cl)cc1C(=O)N1CCOCC1 , and I need its recorded growth inhibition.
-26.1

Look up growth inhibition: O=C(c1ccco1)c1cn[nH]c1-c1ccc(Cl)cc1O
-6.04

Which measured growth inhibition value corresponds to CCOc1ccc2nc(N3CCC(C(=O)N4CCN(C(=O)c5ccco5)CC4)CC3)sc2c1 ?
-10.8

Name the recorded growth inhibition for O=C(NCCN1CCc2ccccc2C1)Nc1ccc(F)cc1 .
-4.88

# input compound: CCOC(=O)c1ccccc1NC(=O)CN(c1cccc(OC)c1)S(C)(=O)=O ; wanted: its growth inhibition
-7.1

What growth inhibition value was documented for this compound, CCCn1c(CN2CCN(C(=O)OCC)CC2)nc2c1c(=O)n(C)c(=O)n2C ?
-3.08

Dear colleague, I am looking for the recorded growth inhibition of the following compound: O=C(NCCCN1CCCCC1)c1ccc2c(=O)n(CCc3ccccc3)c(=O)[nH]c2c1
-7.09

Bench note: what growth inhibition did CC1CCc2nn(CC(=O)NC3CCCC(C)C3C)cc2C1 (stereo not drawn) show?
-6.6

If you can, please state the reported growth inhibition value of CCOCCOC(=O)C1=C(C)N(C)C(=O)NC1c1ccccc1Cl (stereo not drawn) .
1.35

Recorded growth inhibition of Cn1c(CNC(=O)c2ccc(F)cc2)nc2ccccc21 , please.
-0.44

Entry CC1(C)CC(=O)C=C(NCCN2CCN(C(=O)Nc3ccc(Cl)c(Cl)c3)CC2)C1 has what growth inhibition?
13.1

Endpoint output: growth inhibition of Cc1ccccc1-c1nnc(-c2ccccc2)o1 . Value?
-0.03

Name the reported growth inhibition value associated with the compound COC(=O)C1=CN(C(C)C)C=C(C(=O)OC)C1c1cccc(OC)c1
-3.31

What value of growth inhibition has been recorded for this entry: NC(=O)CSc1nc2ccccc2n1-c1ccccc1
-9.13

Item CCOC(=O)N1CCN(CC(=O)Nc2cc3c(cc2C(C)=O)OCO3)CC1 has what recorded growth inhibition?
2.37

// query growth inhibition value for entry N#Cc1ccc(Oc2cccc(C(=O)O)c2)cc1C#N
-13.1

What does the record list as growth inhibition for Cc1ccccc1NC(=O)CN(C)S(=O)(=O)c1cccc2cccnc12 ?
-2.9

Recorded growth inhibition of Cc1ccc(C)c(NC(=O)CS(=O)(=O)c2c[nH]c3ccccc23)c1 , please.
-9.01

---

Assign viability increase to each entry below.
- Protocol Details: viability gain of MRP-1-high H69AR cells under doxorubicin, pilot screen, MRP-1 activator project, CellTiter-Glo, duplicate (AID 807);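 further: compound pretreatment 18-22 h then 72 h combined with doxorubicin; 0% = doxorubicin alone and 100% = vehicle without doxorubicin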
- Run Conditions: H69AR viability with doxorubicin, CellTiter-Glo luminescence; at 10 µM; hits give high values
Reply numerically in %, unit not repeated.

Quick check: viability increase of CCOc1ccc(-n2c(SCC(=O)NCc3ccco3)nc3c([nH]c4ccccc43)c2=O)cc1 ?
-3.17

Which measured viability increase value corresponds to Cc1sc2nc(SCC(=O)OC(C)C)n(C)c(=O)c2c1C ?
-1.84

Data request, read-out viability increase, for Cc1ccc(Cn2c(Sc3nnc(C)s3)nc3c2c(=O)[nH]c(=O)n3C)cc1
-2.58

viability increase lookup needed for COc1ccccc1C1C(C(N)=O)=C(C)Nc2nc(-c3ccccc3Cl)nn21 (stereo not given) , thanks.
-2.13

I'd like to know its viability increase. The compound in question is CN(CC(=O)N1CC=C(c2ccccc2)CC1)S(=O)(=O)c1ccc2c(c1)c(=O)n(C)c(=O)n2C
-3.46
